src = patent US12258327B2

- assayTarget: EGFR wildtype (WT) (Homo sapiens)
- Sequence (P00533 25-1210): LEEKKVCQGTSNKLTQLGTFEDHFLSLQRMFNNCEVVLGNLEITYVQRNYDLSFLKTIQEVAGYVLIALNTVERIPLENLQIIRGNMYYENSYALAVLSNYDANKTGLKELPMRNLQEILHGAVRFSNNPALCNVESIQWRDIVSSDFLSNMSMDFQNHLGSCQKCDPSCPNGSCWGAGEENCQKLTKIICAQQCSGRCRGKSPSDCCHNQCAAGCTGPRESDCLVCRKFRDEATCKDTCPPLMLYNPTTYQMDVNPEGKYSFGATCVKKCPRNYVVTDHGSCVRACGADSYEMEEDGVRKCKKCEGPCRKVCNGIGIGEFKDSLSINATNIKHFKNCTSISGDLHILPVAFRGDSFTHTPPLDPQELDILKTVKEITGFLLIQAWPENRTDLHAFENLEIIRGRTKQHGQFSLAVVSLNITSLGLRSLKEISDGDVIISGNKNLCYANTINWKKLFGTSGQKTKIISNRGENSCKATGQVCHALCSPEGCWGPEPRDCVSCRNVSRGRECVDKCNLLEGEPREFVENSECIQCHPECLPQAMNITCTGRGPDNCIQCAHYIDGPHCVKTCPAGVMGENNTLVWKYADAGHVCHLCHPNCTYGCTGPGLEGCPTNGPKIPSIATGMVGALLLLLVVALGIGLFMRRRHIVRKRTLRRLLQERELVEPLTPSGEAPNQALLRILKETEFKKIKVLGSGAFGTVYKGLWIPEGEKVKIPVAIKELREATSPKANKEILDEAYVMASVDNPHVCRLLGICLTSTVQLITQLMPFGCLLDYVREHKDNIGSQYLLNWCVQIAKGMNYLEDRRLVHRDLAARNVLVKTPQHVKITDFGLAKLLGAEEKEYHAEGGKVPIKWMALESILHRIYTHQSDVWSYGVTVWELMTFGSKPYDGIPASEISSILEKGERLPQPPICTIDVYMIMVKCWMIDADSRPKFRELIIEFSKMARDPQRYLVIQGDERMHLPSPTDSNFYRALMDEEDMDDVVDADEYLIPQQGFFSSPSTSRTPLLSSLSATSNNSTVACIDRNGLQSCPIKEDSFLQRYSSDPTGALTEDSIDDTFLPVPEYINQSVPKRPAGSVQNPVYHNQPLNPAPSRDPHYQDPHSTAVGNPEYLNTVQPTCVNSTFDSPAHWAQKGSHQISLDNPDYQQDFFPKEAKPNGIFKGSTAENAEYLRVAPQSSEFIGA
- experiment: Biochemical EGFR kinase assay (Lance Ultra TR-FRET), wildtype
- conditionSet: Km ATP; read-out: IC50 WT (nM) Km ATP
- Experimental: Biochemical EGFR kinase assays were conducted using Lance Ultra time-resolved fluorescence resonance energy transfer (TR-FRET) technology from Perkin-Elmer. […] Each kinase reactions were incubated at room temperature for 1 hour and then stopped by the addition of 4 μL of stop solution (10 mM EDTA). […] After 60 minutes incubation at room temperature the LANCE signal was measured on an EnVision Multilabel Reader (Perkin-Elmer). […]
measuredQuantity: IC50 (nM)
The reply should contain only the number, in nM.

Past entries and their recorded results:
O=S(=O)(C1CC1)n1cc(-c2nccc(Nc3cc(NCC4CCC(O)C4)c(-c4ccn(C(F)F)n4)cn3)n2)cn1 (stereo not drawn)
7
O=S(=O)(C1CC1)n1cc(-c2nccc(Nc3cc(N[C@H]4CC[C@@H](NCCF)CC4)c(-c4cc5n(n4)CCCC5)cn3)n2)cn1
1.1
CN[C@H]1CC[C@H](CNc2cc(Nc3ccnc(-c4cnn(S(=O)(=O)C5CC5)c4)n3)ncc2-c2ccn(C(F)F)n2)CC1
4

The observed IC50 for `Cc1cc(-c2cnc(Nc3ccnc(-c4cnn(S(=O)(=O)C5CC5)c4)n3)cc2N[C@H]2CC[C@@H](CO)CC2)nn1C` when tested with EGFR wildtype (WT) (Homo sapiens) stands at 0.4

The observed IC50 for `O=S(=O)(C1CC1)n1cc(-c2nccc(Nc3cc(N[C@H]4CC[C@@H](O)CC4)c(-c4ccco4)cn3)n2)cn1` when tested with EGFR wildtype (WT) (Homo sapiens) stands at 8.6

The observed IC50 for `OCC[C@H]1CC[C@@H](Nc2cc(Nc3ccnc(-c4cnn(CC(F)F)c4)n3)ncc2-c2ccn(C(F)F)n2)CC1` when tested with EGFR wildtype (WT) (Homo sapiens) stands at 19.9

* * *

- assayTarget: EGFR wildtype (WT) (Homo sapiens)
- experiment: Biochemical EGFR kinase assay (Lance Ultra TR-FRET), wildtype
- conditionSet: Km ATP; read-out: IC50 WT (nM) Km ATP
# IC50 values compiled below
The reply should contain only the number, in nM.

CN(C)C[C@H]1CC[C@H](CNc2cc(Nc3ccnc(-c4cnn(S(=O)(=O)C5CC5)c4)n3)ncc2-c2ccn(C(F)F)n2)CC1
1
CN(C)CC[C@H]1CC[C@@H](Nc2cc(Nc3nc(-c4cnn(S(=O)(=O)C5CC5)c4)ncc3F)ncc2-c2ccn(C(F)F)n2)CC1
1.2
Cn1ccc(-c2cnc(Nc3ccnc(-c4cnn(S(=O)(=O)C5CC5)c4)n3)cc2NC[C@H]2CC[C@](C)(O)CC2)n1
5.8

The observed IC50 for `Cn1nc(-c2cnc(Nc3ccnc(-c4cnn(S(=O)(=O)C5CC5)c4)n3)cc2N[C@H]2CCC[C@H](CO)C2)cc1C(F)(F)F` when tested with EGFR wildtype (WT) (Homo sapiens) stands at 27.1

The observed IC50 for `Cn1nc(-c2cnc(Nc3ccnc(-c4cnn(S(=O)(=O)C5CC5)c4)n3)cc2N[C@H]2CC[C@@](C)(O)CC2)cc1C(F)(F)F` when tested with EGFR wildtype (WT) (Homo sapiens) stands at 3

The observed IC50 for `Cn1cc(-c2cnc(Nc3ccnc(-c4cnn(S(=O)(=O)C5CC5)c4)n3)cc2C#CC(C)(C)O)cn1` when tested with EGFR wildtype (WT) (Homo sapiens) stands at 214
